assay_context: 303.15 K; 101.33 kPa; Liquid; Pycnometric method
// mass density lookup, one value per entry

molecule: ClC(Cl)C(Cl)Cl [1,1,2,2-tetrachloroethane]
readout_units: kg/m3
mass density: 1578.59
--
molecule: C[S+](C)[O-] [dimethyl sulfoxide]
readout_units: kg/m3
mass density: 1090.4
--
molecule: ClCCCl [1,2-dichloroethane]
readout_units: kg/m3
mass density: 1238.41
--
molecule: CC(Cl)(Cl)Cl [1,1,1-trichloroethane]
readout_units: kg/m3
mass density: 1320.97
--
molecule: ClC=C(Cl)Cl [trichloroethene]
readout_units: kg/m3
mass density: 1451.42
--
molecule: ClC(Cl)=C(Cl)Cl [tetrachloroethene]
readout_units: kg/m3
mass density: 1606.39
